Each recorded value in this set is attributed to patent US20170342144A1.

- TARGET OR SYSTEM: T1, human TGFβ2 (human, UniProt P61812 303-414)
- T1 construct: also called TGFβ2 homodimer
- T1 sequence: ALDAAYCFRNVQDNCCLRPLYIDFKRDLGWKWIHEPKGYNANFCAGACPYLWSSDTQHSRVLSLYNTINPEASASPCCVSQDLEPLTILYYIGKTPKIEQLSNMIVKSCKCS
- TEST METHOD NOTES: Biacore off-rate vs wt GC1008, 50 nM
# Lookup of reported kd var/kd wt keyed by entry
Enter the number alone.

As a guide, the following entries are already answered.
[[record]]
binder = "Y27Q (antibody, V domains shown, GC1008 IgG4 variant) VH: QVQLVQSGAEVKKPGSSVKVSCKASGQTFSSNVISWVRQAPGQGLEWMGGVIPIVDIANYAQRFKGRVTITADESTSTTYMELSSLRSEDTAVYYCASTLGLVLDAMDYWGQGTLVTVSS VL: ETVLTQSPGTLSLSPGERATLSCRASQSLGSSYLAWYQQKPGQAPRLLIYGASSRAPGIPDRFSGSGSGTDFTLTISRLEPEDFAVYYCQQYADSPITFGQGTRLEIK"
measured_number = 1.4

[[record]]
binder = "I54Y (antibody, V domains shown, GC1008 IgG4 variant) VH: QVQLVQSGAEVKKPGSSVKVSCKASGYTFSSNVISWVRQAPGQGLEWMGGVIPYVDIANYAQRFKGRVTITADESTSTTYMELSSLRSEDTAVYYCASTLGLVLDAMDYWGQGTLVTVSS VL: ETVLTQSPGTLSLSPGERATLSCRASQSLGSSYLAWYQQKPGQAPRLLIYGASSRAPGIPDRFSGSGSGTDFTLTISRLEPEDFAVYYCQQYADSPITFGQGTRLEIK"
measured_number = 1.3


Moving on to the next binder.
Record summary for Y27K (antibody, V domains shown, GC1008 IgG4 variant) VH: QVQLVQSGAEVKKPGSSVKVSCKASGKTFSSNVISWVRQAPGQGLEWMGGVIPIVDIANYAQRFKGRVTITADESTSTTYMELSSLRSEDTAVYYCASTLGLVLDAMDYWGQGTLVTVSS VL: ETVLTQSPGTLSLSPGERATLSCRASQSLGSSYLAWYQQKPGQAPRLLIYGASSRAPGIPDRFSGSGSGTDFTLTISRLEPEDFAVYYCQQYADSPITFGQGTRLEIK : reported kd var/kd wt = 1.4
